# MEASURED_ON: apo-human transferrin (apo-hTf) (Homo sapiens, UniProt P02787)
# Sequence (P02787 20-698): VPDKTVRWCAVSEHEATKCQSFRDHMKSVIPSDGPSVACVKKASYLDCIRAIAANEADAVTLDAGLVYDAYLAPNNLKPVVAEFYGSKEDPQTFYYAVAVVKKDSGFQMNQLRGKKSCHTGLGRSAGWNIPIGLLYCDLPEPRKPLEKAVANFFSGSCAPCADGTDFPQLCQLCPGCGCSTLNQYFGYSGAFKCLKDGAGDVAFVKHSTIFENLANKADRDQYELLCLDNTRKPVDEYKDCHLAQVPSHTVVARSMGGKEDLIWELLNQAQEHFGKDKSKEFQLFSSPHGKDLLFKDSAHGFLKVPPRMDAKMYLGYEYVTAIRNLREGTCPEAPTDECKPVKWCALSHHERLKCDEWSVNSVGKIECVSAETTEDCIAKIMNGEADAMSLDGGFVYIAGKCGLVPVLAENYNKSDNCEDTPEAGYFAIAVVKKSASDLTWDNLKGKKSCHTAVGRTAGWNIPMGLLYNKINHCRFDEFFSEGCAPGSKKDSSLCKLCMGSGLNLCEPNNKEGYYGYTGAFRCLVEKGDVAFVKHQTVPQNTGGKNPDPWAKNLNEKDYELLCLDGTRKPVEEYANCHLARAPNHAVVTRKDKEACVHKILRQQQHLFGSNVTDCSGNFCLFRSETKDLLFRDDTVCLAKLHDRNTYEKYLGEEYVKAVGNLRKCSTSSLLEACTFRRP
# PROTOCOL_NOTES: Thermodynamic parameters of apo-hTf complex formation
# Type: binding
# CONDITION_INFO: 296 K
Item-by-item account of ∆G°
Please reply with the bare figure in kJ/mol and do not write the unit itself.

Solved entries (count: 5):
Req: Please list ∆G° recorded for the molecule [Cl][Zr+2][Cl].c1cc[cH-]c1.c1cc[cH-]c1 [Cp2ZrCl2]
Resp: -19.12

Req: Please list ∆G° recorded for the molecule [Cl-].[Cl-].[Mo+4].c1cc[cH-]c1.c1cc[cH-]c1 [Cp2MoCl2]
Resp: -17.96

Req: Please list ∆G° recorded for the molecule [Cl-].[Cl-].[Hf+4].c1cc[cH-]c1.c1cc[cH-]c1 [Cp2HfCl2]
Resp: -18.59

Req: Please list ∆G° recorded for the molecule C1CCCC1.C1CCCC1.[Cl][W][Cl] [Cp2WCl2]
Resp: -18.17

Req: Please list ∆G° recorded for the molecule [Cl-].[Cl-].[Ti+4].c1cc[cH-]c1.c1cc[cH-]c1 [Cp2TiCl2, titanocene dichloride]
Resp: -18.06

More entries:
Req: Please list ∆G° recorded for the molecule C1CCCC1.C1CCCC1.[Cl][Nb][Cl] [Cp2NbCl2]
Resp: -24.95

Req: Please list ∆G° recorded for the molecule N.N.[Cl][Pt][Cl] [(NH3)2Pt(II)Cl2, cis-diamminedichloroplatinum (II), reference compound]
Resp: -17.68

Req: Please list ∆G° recorded for the molecule [Cl-].[Cl-].[V+4].c1cc[cH-]c1.c1cc[cH-]c1 [Cp2VCl2]
Resp: -25.81

====

# MEASURED_ON: apo-human transferrin (apo-hTf) (Homo sapiens)
# PROTOCOL_NOTES: Far-UV circular dichroism titration of apo-hTf, secondary structure content
# CONDITION_INFO: compound concentration 0.4 (M)
READOUT_KIND: α-helix content of apo-hTf (%)
Please reply with the bare figure in % and do not write the unit itself.

Req: Please list α-helix content of apo-hTf recorded for the compound C1CCCC1.C1CCCC1.[Cl][Nb][Cl] [Cp2NbCl2]
Resp: 29

Req: Please list α-helix content of apo-hTf recorded for the compound [Cl-].[Cl-].[Mo+4].c1cc[cH-]c1.c1cc[cH-]c1 [Cp2MoCl2]
Resp: 28.7

Req: Please list α-helix content of apo-hTf recorded for the compound [Cl-].[Cl-].[Ti+4].c1cc[cH-]c1.c1cc[cH-]c1 [Cp2TiCl2, titanocene dichloride]
Resp: 29.3

Req: Please list α-helix content of apo-hTf recorded for the compound [Cl][Zr+2][Cl].c1cc[cH-]c1.c1cc[cH-]c1 [Cp2ZrCl2]
Resp: 29.2

Req: Please list α-helix content of apo-hTf recorded for the compound C1CCCC1.C1CCCC1.[Cl][W][Cl] [Cp2WCl2]
Resp: 29.8

Req: Please list α-helix content of apo-hTf recorded for the compound [Cl-].[Cl-].[V+4].c1cc[cH-]c1.c1cc[cH-]c1 [Cp2VCl2]
Resp: 28.4

More entries:
Req: Please list α-helix content of apo-hTf recorded for the compound [Cl-].[Cl-].[Hf+4].c1cc[cH-]c1.c1cc[cH-]c1 [Cp2HfCl2]
Resp: 29.7

Req: Please list α-helix content of apo-hTf recorded for the compound N.N.[Cl][Pt][Cl] [(NH3)2Pt(II)Cl2, cis-diamminedichloroplatinum (II), reference compound]
Resp: 28.9
